Method: amyloid nucleation score (Sup35N fusion, yeast selection) (log enrichment); library NNK3; higher = more nucleation; inactive = no reads after selection;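 further: zero at mode of non-aggregating sequences after 7 days selection at 30°C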

Substance	amyloid nucleation score
SIDDGLSYLMGKVKIHKSGK	inactive
TGDSLLLAHLLWSMDIVNMN	inactive
WFGLIFFLICLYTPQLSLKL	inactive
SQYTRCSVYIVW	1.43
RNCYCWASVDI	inactive
FYEVRVRRVRVHVKEQPLLH	-0.406
SDNFLRNSLSQEYVRQTLGQ	inactive
TMSLFTTSVCCWTKGAIRHS	inactive
NNGFGSWGV	inactive
CLSTPMVMLICFM	0.904
WILLGRSSQWSWASGGNSGQ	1.5
ISCPLYQGMGHLIH	inactive
LSDYIGAPFSSKSRDW	inactive
KPSRNESLQMALLSYIYLFR	inactive
WHNMSMMKSVPTYSGESHTR	0.97
LCPLMAY	inactive
WLHSGYGSNLPKATMRYCPN	inactive
CENIVGMPDRRISSVAGPDG	0.486
FTMALMLALTTGISSMSVGG	0.345
GVFDYTYGRLVAVFKGFGNY	inactive
DSTSLKIGRNAMSHHKSNPC	1.09
YKNKTSNMLICNAF	inactive
WSLPSRLIRDVGSSWIYFCL	inactive
VHLYADPDVMQYNRWDVVGY	inactive
MLCKYTCLICYGYRTKRSSE	0.684
DDMTYGSVCNKSGRTPLLPS	inactive
KRNFGWSAIRVQFIDFCLKG	inactive
RECVMETWSQVGRWFTCVRV	inactive
ELDMLRYEVMVCNHDDGLCE	inactive
RDISGMLYCYEGFYVF	inactive
NHKPLWFFDVATTGTGLNR	inactive
FFKSLRV	inactive
ERFSFVLVNGVRYFRSNLRW	inactive
CFELDVRDEA	inactive
WLFRGVVRNRRALARGIRAG	inactive
LMDDTVQMYR	inactive
NFQNSVLFNMV	inactive
LPTSQA	inactive
DMCNYAFDGLCIYNYVNVVG	inactive
RIRGMFGCPNNR	inactive
IWISLGAMIMFMVN	inactive
SNEHAVVYS	inactive
DTISGGEWDNEVRPYRILLL	inactive
VFSFDMLHRLG	1.53
NNYVMA	-0.231
VCLWTVDLRIVTEGLGSHRG	inactive
RCAPFNFFPCHIWRYVLTRK	inactive
GILRQRIYFSM	inactive
SLCSVLIMHPSNSDRF	0.101
NMETYLFANVMLFGKPGLLS	1.01
DVLTVMSQLVVMKTL	inactive
FFVKYVLEKCAWKY	inactive
PNMSIPLLCLCDNISDFHRF	1.69
WRTSMVASILRVRWEYLKWK	inactive
TGSTDRHYGRYIGWGANSRF	inactive
HSRVWGKYSGSLPGKM	inactive
ATSTTSLRVNLDHCAETFQN	0.238
NLCRAI	0.256
IQSKRRPSDCLPKS	inactive
VQWCQDAFVIV	inactive
CFDTSLSVPGPMCYWKTKHG	inactive

====

Method: amyloid nucleation score (Sup35N fusion, yeast selection) (log enrichment); library NNK2; higher = more nucleation; inactive = no reads after selection
Attribute: amyloid nucleation score

Substance	amyloid nucleation score
YHITSSLWVDDIHVLLNMGP	0.328
VVVRGVQAGCGKPPVSRLRI	0.838
ANGSKGLVLTLNGDSKCVEC	0.188
DTRKFLDKLYA	-0.13
FMTNGFFVSLWFTCGDSVLS	5.68
TFATIRVAFMVMCRFDG	3.23
RLSPPLCVLIYIMRYLNGYW	0.42
WNWRVNDGVPGMTYVKAYSS	-0.672
RNYEGPPGDLGQQVLSHSMP	-0.853

====

Method: amyloid nucleation score (Sup35N fusion, yeast selection) (log enrichment); library NNK1; higher = more nucleation; inactive = no reads after selection
Class (required): determined from amyloid nucleation score; valid ranges are low band: < -0.3; middle band: ≥ -0.3 and < 0.4; high band: ≥ 0.4

Substance	Class assignment
CNWPDLDLSNRKWNPMKSML	middle band
IVGLQAVENIRNSCICLFMK	high band
VRRQRKVVLPTLMGNASGRP	middle band
MCMQKVL	middle band
SRHSGGAYNIVTMVT	high band
SGWRSHKLLVSSSCMNARSY	low band
FDANGVCSSITSCM	low band
WRESSWLCMWERNVKVDWGR	low band
CYAPSFWTYWCLCSCMVDPN	high band
QRSRHSIFQGILRGSNSSWD	high band
KEYNLLHDL	low band
DCFARVLLTMRYLKGVVYTE	high band
QISVKTMLLSLTFRMFIYWN	middle band
NGLGFLNGRSSFGVGCYY	low band
KKFFRVLLSLSSMLVLCCFQ	low band
NFLIANRSLDAVLMVQLPFV	low band
RIKNGLPKGFFGKSLSPMRW	middle band
DTRNPRITALRY	high band
NVAFYVTVV	middle band

====

Method: amyloid nucleation score (Sup35N fusion, yeast selection) (log enrichment); library NNK1; higher = more nucleation; inactive = no reads after selection

Substance	amyloid nucleation score
FQGLSFKHGAIGSAYSQSFD	inactive
WLVTDFVCHLITNTIYTLLL	inactive
FLIYVQYTKYSLWAPVFIHR	inactive
TLGFKIVDGIRGNMLVGPGI	-0.081
LDVYCH	inactive

====

Method: amyloid nucleation score (Sup35N fusion, yeast selection) (log enrichment); library NNK1; higher = more nucleation; inactive = no reads after selection
Kindly return Satisfied if reported amyloid nucleation score is no lower than 1; return Not satisfied if it is lower.

Substance	Class assignment
GALCCLCRSNHYVLQCGVKC	Satisfied
VVGVYYSCIYVGAYNLGSIP	Satisfied
IPKCMYGRDRICLMLVAFEN	Satisfied
LEPNCVLSYTDSFVNQFVTL	Not satisfied
MVSTPSDGNLED	Not satisfied
FNLITSD	Not satisfied
RFNSYEVVIRVWRDSMISEG	Satisfied

====

Consider the following substances and their measured amyloid nucleation score readings.
Method: amyloid nucleation score (Sup35N fusion, yeast selection) (log enrichment); library NNK1; higher = more nucleation; inactive = no reads after selection

Substance	amyloid nucleation score
SDLLCLLVKDIIYFFVYLHS	1.96
MNLQYHILN	-0.345
FRTSVDNLIGSENRISLRTS	0.541
WWKRKTSFVSRSYQVRFAQF	-0.058
WGSSLRRTYMFYLDFDGWVN	-0.405
NECSGGLQKLLNRTTNSDLW	0.185
IGMALKWNFLCKSSDRFLRV	0.296
SALIAMYYHSSGTMWIQYFC	0.145
VFSCWKAVILIPVQGVLVQR	0.616
AFCIFCSRLAEIAHLAF	7.13
DCKAYSIRSNV	0.705
GHHVRLLFLCVHTISYMESR	0.582
RFCGVMESERTVIRKCREVG	0.095
DAVSYNSPGGELYDLFNLTA	-0.994
SCQIGLPVLTYRTATVGHKS	0.06
PMAVRLSYCCNRIYVLY	4.47
DKRKVRFAVMFNWRRELRY	0.708
IPDNVVF	-1.27
SVLWRGIFCFWIAWFV	-1.39
KEWFYYLVDELCGGLCNPVR	0.39
QWCNIVGSMIVDITQELML	1.75
NRSVRGVFLEGNVRFCWLRE	1.21
RWSILTIVSMGP	0.196
SPGMWGMGVDNSKSGRWALR	1.89

====

Method: amyloid nucleation score (Sup35N fusion, yeast selection) (log enrichment); library NNK2; higher = more nucleation; inactive = no reads after selection
Observation type: amyloid nucleation score

Substance	Val
SNRLRVVQ	-0.069
SMSSTSFSQWSMAWLEGRMA	2.93
VICLCVLFRGSCRIKILDIV	-1.37
LSMQKCSLIIISRCGRSRNM	3.77
QERSILGLHWYICRVAKLSF	0.196
IYLRESSVYILVFLRTFLVA	-0.542
YCRHGGNRASL	0.783
WHDIQALTSMDVGRYLGDAI	-0.696
ISCKSFENTTHPALIPRVKA	-0.331
LAMTAAKIMDRFNGCSLKSF	0.648
WRQSVQ	1.12
PTMHVRVSG	0.495
SWVEGRLDGVFWRLVLFTEN	0.433
CICLIMRTKTCELGSLLG	5.78
LVLIIK	5.96
KNNIWVIYPFVNG	6.43
DTVYAF	-0.651
VSNAGSSTKDILGIHRS	-0.06
WHKFGNNRANEGRYIMHLMH	-0.282
NHAVVCLDFNGGFPGQA	-0.481
VVDGYYGFWVVSQEDISIYP	-0.094
MAYWESTVIYYIDWEWDSLV	-1.16
CRQISGNTNVRLGASSMRII	-0.526
PSQHSWGWARCLQDCDSMPG	0.591
EYSGLDVTDCQDT	0.44
SQNETFFKMCVELN	0.165
VFIRAGIVFQFWCNG	7.22
VFTVLYALSCLSFIFVTV	4.04
EALMMVYGWEKTD	0.733
QYTRDFVRGTSQF	-0.949
PKNLILLSHFYSEAVCPGAR	-0.927
VLRSVRIFLDN	1.3
LIFFYSS	-1.05
TNVLYMLWTFKVDERY	5.96
YKVLSISLIVDTFARLYYAL	-0.921
SPLASYIAVLWGNVR	-0.515
DNSAGDLYNSSVTGSPVMQL	-0.447
VRNGFKMRRRMSSPVCETLL	-0.642
VCIRVRRDRKVMWDWSV	1.5
DSFIIASRL	1.69
YGKGDLGRCSLDTSTTLSDW	0.252
LCFNLLNPCGRFGVECGCVL	4.53
FFSMRVIIMFERNSSVFAVQ	4.1
SVRVVDDGKTGGVGGTSQR	0.767
LAFGHVSVS	0.086
NILLIPMRGFSRFRSVMVIP	-0.202
LSHKSVRAKENPIQSSQCES	1.2
QIYGCNWLCLQVRHPV	8.06
